- System: Rattus norvegicus
- assay_method_text: Anti-inflammatory activity in Wistar albino Rattus norvegicus (rat) assessed as inhibition of carrageenan-induced paw edema at 10 mg/kg, po administered 30 min prior to carrageenan challenge measured after 1 hr by plethysmometric analysis relative to untreated control
- Format: functional
Measured inhibition in vivo at 10 mg/kg by item
Just the number please, in %, no unit attached.

Record excerpt, results attached:
molecule=COc1ccc(F)cc1-c1cccc(-c2nn(CCCN)c(=O)o2)c1 target_of_assay="Rattus norvegicus" test_readout="inhibition in vivo at 10 mg/kg" readout_value=43
molecule=COc1ccc(F)cc1-c1cccc(-c2nn(CCOS(=O)(=O)c3ccc(Cl)c(Cl)c3)c(=O)o2)c1 target_of_assay="Rattus norvegicus" test_readout="inhibition in vivo at 10 mg/kg" readout_value=39
molecule=COc1ccc(F)cc1-c1cccc(-c2nn(CCCC#N)c(=O)o2)c1 target_of_assay="Rattus norvegicus" test_readout="inhibition in vivo at 10 mg/kg" readout_value=44
molecule="O=C(O)Cc1ccccc1Nc1c(Cl)cccc1Cl [DICLOFENAC SODIUM]" target_of_assay="Rattus norvegicus" test_readout="inhibition in vivo at 10 mg/kg" readout_value=49
molecule=COc1ccc(F)cc1-c1cccc(-c2nn(CCOS(=O)(=O)c3ccc(F)c(Cl)c3)c(=O)o2)c1 target_of_assay="Rattus norvegicus" test_readout="inhibition in vivo at 10 mg/kg" readout_value=42

// sample COc1ccc(F)cc1-c1cccc(-c2n[nH]c(=O)o2)c1 , its inhibition in vivo at 10 mg/kg was 41

// sample COc1ccc(F)cc1-c1cccc(-c2nn(CCCCF)c(=O)o2)c1 , its inhibition in vivo at 10 mg/kg was 51

----------
- Test system: Rattus norvegicus
- assay_method_text: Anti-inflammatory activity in Wistar albino Rattus norvegicus (rat) assessed as inhibition of carrageenan-induced paw edema at 10 mg/kg, po administered 30 min prior to carrageenan challenge measured after 3 hr by plethysmometric analysis relative to untreated control
- Assay type: functional
Measured inhibition in vivo at 10 mg/kg by item
Just the number please, in %, no unit attached.

Record excerpt, results attached:
compound=COc1ccc(F)cc1-c1cccc(-c2n[nH]c(=O)o2)c1 readout_value=71
compound=COc1ccc(F)cc1-c1cccc(-c2nn(CCO)c(=O)o2)c1 readout_value=75
compound=COc1ccc(F)cc1-c1cccc(-c2nn(CCCN)c(=O)o2)c1 readout_value=77
compound="COc1ccc(F)cc1-c1cccc(-c2nn(CCOC3CCCCO3)c(=O)o2)c1 (configuration not stated)" readout_value=65
compound="O=C(O)Cc1ccccc1Nc1c(Cl)cccc1Cl [DICLOFENAC SODIUM]" readout_value=90

// sample COc1ccc(F)cc1-c1cccc(-c2nn(CCOS(=O)(=O)c3ccc(Cl)c(Cl)c3)c(=O)o2)c1 , its inhibition in vivo at 10 mg/kg was 66

// sample COc1ccc(F)cc1-c1cccc(-c2nn(CCOS(=O)(=O)c3ccc(F)cc3)c(=O)o2)c1 , its inhibition in vivo at 10 mg/kg was 67

----------
- Tested on: Bacillus subtilis
- assay_method_text: Antibacterial activity against Bacillus subtilis assessed as growth inhibition at 50 ug/mL after 24 to 48 hr by cup-plate method
- Format: functional
- condition_set: read-out: DIZ
Measured zone of inhibition at 50 µg/mL by item
Reply with a number, then the unit it belongs to.

Record excerpt, results attached:
entry_smiles=COc1ccc(F)cc1-c1cccc(-c2nn(CCCCF)c(=O)o2)c1 test_readout="zone of inhibition at 50 µg/mL" readout_value="20 mm"
entry_smiles=COc1ccc(F)cc1-c1cccc(-c2nn(CCOS(=O)(=O)c3ccc(F)cc3)c(=O)o2)c1 test_readout="zone of inhibition at 50 µg/mL" readout_value="15 mm"

// sample COc1ccc(F)cc1-c1cccc(-c2nn(CCCN)c(=O)o2)c1 , its zone of inhibition at 50 µg/mL was 12 mm

// sample COC(=O)CCCn1nc(-c2cccc(-c3cc(F)ccc3OC)c2)oc1=O , its zone of inhibition at 50 µg/mL was 10 mm

// sample COc1ccc(F)cc1-c1cccc(-c2nn(CCCC#N)c(=O)o2)c1 , its zone of inhibition at 50 µg/mL was 13 mm
